- measurement_notes: gradient 5% acetonitrile 3 min, to 50% in 2 min, to 85% in 15 min, held 3 min, 100 µL/min
- recorded_conditions: column: Zorbax Extend-C18 2.1 x 50 mm; eluents: water / acetonitrile, 0.1% formic acid
quantity: RP-LC retention time (s)

| compound | result_number |
| --- | --- |
| CC(C)Cc1cc(-c2nn3c(-c4ccccc4F)nnc3s2)n[nH]1 | 915 |
| COc1cc([C@@H]2c3cc4c(cc3[C@H](O)[C@@H](CO)[C@@H]2C(=O)NCc2ccccc2)OCO4)cc(OC)c1OC | 700 |

[A] Cc1ccccc1S(=O)(=O)N1CCC(n2cnnc2C2CC2)CC1
[B] CCc1nc2c(sc3nc(-c4ccccc4)ccc32)c(=O)n1CC(=O)N1CCc2ccccc2C1
# compare RP-LC retention time for A vs B ; return the one with the smaller value Write the label of whichever entry you select.
A
(A: 706 s, B: 1170 s)

[P] O=C(c1ccc2c(c1)N(Cc1ccccc1)CCS2)N1CCN(c2ccccn2)CC1
[Q] O=S(=O)(Cc1ccccc1)N1CCC(Oc2nc3ccccc3s2)CC1
# compare RP-LC retention time for P vs Q ; return the one with the smaller value Write the label of whichever entry you select.
P

[I] Cc1cc(NC(=O)Cn2cnc3c(oc4ccccc43)c2=O)no1
[II] COCc1cnc2c(c1SCc1cccc(F)c1)c(=O)n(C)c(=O)n2C
Form field 'greater RP-LC retention time' accepts I or II ; which applies? Write the label of whichever entry you select.
II
(II: 960 s, I: 668 s)

---

- measurement_notes: gradient 5% acetonitrile 3 min, to 50% in 2 min, to 85% in 15 min, held 3 min, 100 µL/min
- recorded_conditions: column: Zorbax Extend-C18 2.1 x 50 mm; eluents: water / acetonitrile, 0.1% formic acid
quantity: RP-LC retention time (s)

The following compounds have reported results that may help.
| compound | quantity | unit_info | result_number |
| --- | --- | --- | --- |
| Cc1ccccc1-c1nc(C2CCN(S(=O)(=O)c3ccccc3)CC2)no1 | RP-LC retention time | s | 1140 |
| CC(NC(=O)c1cn2c(n1)CCCC2)c1ccc(F)cc1 (stereo not given) | RP-LC retention time | s | 612 |
| Cc1c(Cl)cccc1NC(=O)Cn1nc(C(=O)N2CCCCC2)c2ccccc21 | RP-LC retention time | s | 917 |
| O=C(NCc1ccc(F)cc1)C1CCN(c2cc(N3CCSCC3)ncn2)CC1 | RP-LC retention time | s | 666 |
| COc1ccc(S(=O)(=O)c2cnc3cc4c(cc3c2N2CCN(C)CC2)OCCO4)cc1 | RP-LC retention time | s | 608 |

[P] Cn1c(=O)c2nc(S(=O)(=O)CCC(=O)Nc3ccc(F)cc3F)n(C)c2n(C)c1=O
[Q] COc1cc(Cn2nc(C)c3cnn(C(C)(C)C)c3c2=O)cc(OC)c1
# compare RP-LC retention time for P vs Q ; return the one with the smaller value Write the label of whichever entry you select.
P
(P: 737 s, Q: 1070 s)

---

- measurement_notes: gradient 5% acetonitrile 3 min, to 50% in 2 min, to 85% in 15 min, held 3 min, 100 µL/min
- recorded_conditions: column: Zorbax Extend-C18 2.1 x 50 mm; eluents: water / acetonitrile, 0.1% formic acid
quantity: RP-LC retention time (s)

| compound | result_number |
| --- | --- |
| CCn1c(=O)c(C(=O)NCc2ccccc2OC)nc2cccnc21 | 800 |
| CCc1noc(NC(C)=O)c1-c1ccc(C)c(S(=O)(=O)Nc2ccccc2Cl)c1 | 829 |
| CC(C)N1C[C@H](O)C[C@H]1c1nnc2n1CCN(C(=O)c1ccc3ccccc3n1)C2 | 586 |
| COc1ccc(-c2cc3nn(CC(=O)Nc4cccc(Cl)c4)c(=O)n3c(C)n2)cc1 | 979 |
| COc1cccc(F)c1-c1nc(C)c(C(=O)Nc2nc3ccccc3[nH]2)s1 | 779 |
| O=C(NCC(O)Cc1ccccc1)c1c(F)cccc1F (stereo not given) | 678 |
| CCCN(CCC)c1nc(-c2ccc(OC)cc2)nc2ccccc12 | 896 |
| Cc1ccc(CN2CCN(CC(=O)NC3CCN(Cc4ccccc4)CC3)C(=O)C2=O)cc1 | 614 |
| Cc1c(CC(=O)NC(C)C)c(=O)n2nc(-c3ccccc3)nc2n1C | 673 |
| CCN1CCN(c2ccc(NC(=O)c3ccc(Cl)cc3)cn2)C1=O | 775 |

---

- measurement_notes: gradient 5% acetonitrile 3 min, to 50% in 2 min, to 85% in 15 min, held 3 min, 100 µL/min
- recorded_conditions: column: Zorbax Extend-C18 2.1 x 50 mm; eluents: water / acetonitrile, 0.1% formic acid
quantity: RP-LC retention time (s)

| molecule | quantity | unit_info | result_number |
| --- | --- | --- | --- |
| Cc1ccc(Nc2c(-c3cc(Br)ccc3O)nc3ncccn23)cc1 | RP-LC retention time | s | 1050 |
| Cc1ccc2c(Nc3cccc(Cl)c3)c(C(=O)N3CCSCC3)cnc2n1 | RP-LC retention time | s | 654 |
| Cc1nsc2ncc(C(=O)N3CCOCC3)c(N3CCC(C(=O)Nc4cccc(Cl)c4)CC3)c12 | RP-LC retention time | s | 848 |
| Cn1nc(C(=O)N2CCCCC2)c2c1CCN(C(=O)CCC(=O)NCCN1CCCCCC1)C2 | RP-LC retention time | s | 590 |
| CCOc1ccccc1-c1nc(CN(c2ccccc2)S(=O)(=O)c2cccs2)c(C)o1 | RP-LC retention time | s | 1160 |
| O=C(NC1CCCCCC1)c1cccc(CN2C(=O)C3CCCN3C(=O)c3ccccc32)c1 (centres undefined) | RP-LC retention time | s | 865 |

[I] CCCc1cc(C2CCCN2C(=O)Nc2cccc(C)c2)no1 (centres undefined)
[II] COc1ccccc1-c1[nH]ncc1CN1CCC2(CC1)CC(O)CCO2 (centres undefined)
Form field 'greater RP-LC retention time' accepts I or II ; which applies? Write the label of whichever entry you select.
I
(I: 945 s, II: 561 s)

---

- measurement_notes: gradient 5% acetonitrile 3 min, to 50% in 2 min, to 85% in 15 min, held 3 min, 100 µL/min
- recorded_conditions: column: Zorbax Extend-C18 2.1 x 50 mm; eluents: water / acetonitrile, 0.1% formic acid
quantity: RP-LC retention time (s)

| molecular_string | quantity | unit_info | result_number |
| --- | --- | --- | --- |
| CN(C)[C@@H]1CN(C(=O)c2cc(Cl)ccc2F)C[C@H]1CO | RP-LC retention time | s | 571 |
| CCCNC(=O)C1CCN(c2ccc(SCC(=O)Nc3ccc(C)cc3F)nn2)CC1 | RP-LC retention time | s | 679 |
| Cc1ccc(NC(=O)N2CCc3c(c(-c4nc(C)no4)nn3C)C2)cc1 | RP-LC retention time | s | 750 |

[a] O=C(NCc1ccncc1)C1=C2CCCN2c2ccc(F)cc2S1(=O)=O
[b] C=CCN1C(=O)COc2ccc(-c3nc(NC(=O)c4ccc(OC)c(OC)c4)sc3C)cc21
Form field 'greater RP-LC retention time' accepts a or b ; which applies? Write the label of whichever entry you select.
b
(b: 985 s, a: 583 s)

---

- measurement_notes: gradient 5% acetonitrile 3 min, to 50% in 2 min, to 85% in 15 min, held 3 min, 100 µL/min
- recorded_conditions: column: Zorbax Extend-C18 2.1 x 50 mm; eluents: water / acetonitrile, 0.1% formic acid
quantity: RP-LC retention time (s)

| compound | RP-LC retention time, s |
| --- | --- |
| CCCn1c2ccccc2c2nnc(SC(CC)C(=O)Nc3nc(-c4ccccc4)cs3)nc21 (stereo not given) | 1230 |
| CC1(c2nc(C3CC3)no2)CCCN(C(=O)c2n[nH]c3ccccc23)C1 (stereo not given) | 781 |
| Cc1cccc(NC(=O)CSc2ccc(N3CCCC(C(=O)NC4CC4)C3)nn2)c1 (stereo not given) | 648 |

[A] CCN(CCCNC(=O)C1CCN(c2ncnc3c2oc2ccccc23)CC1)c1ccccc1
[B] CCn1cc(-c2nc(C(=O)Nc3ccc(F)cc3C)cs2)c2cccnc21
Form field 'greater RP-LC retention time' accepts A or B ; which applies? Write the label of whichever entry you select.
B
(B: 1000 s, A: 611 s)

---

- measurement_notes: gradient 5% acetonitrile 3 min, to 50% in 2 min, to 85% in 15 min, held 3 min, 100 µL/min
- recorded_conditions: column: Zorbax Extend-C18 2.1 x 50 mm; eluents: water / acetonitrile, 0.1% formic acid
quantity: RP-LC retention time (s)

The following compounds have reported results that may help.
| molecular_string | RP-LC retention time [s] |
| --- | --- |
| CC(C)NC(=O)c1nnc(-c2ccc(S(=O)(=O)N(C)C)cc2)o1 | 737 |
| COC(=O)CCSCC(=O)Nc1nnc(C)s1 | 602 |
| CC(C)N1CCN(C(=O)c2nc(N3CCSCC3)c3cnn(C)c3n2)CC1 | 577 |

[I] CCN1CCN(Cc2nc(-c3ccc(N4CCSCC4)nc3)no2)CC1
[II] Cc1cc2nn(CC(=O)N(C)C3CCCCC3)c(=O)n2c(Nc2ccccc2C)n1
# compare RP-LC retention time for I vs II ; return the one with the smaller value Write the label of whichever entry you select.
I
(I: 604 s, II: 1110 s)
